# assay info: basal 3T3-L1 adipocyte mitochondrial potential changes, profiling panel, cell-based, JC-1 fluorescence, 3T3-L1 adipocytes, 24 h, 100 nL compound (AID 1168); note: test concentration not given here
# measurement setup: JC-1 mitochondrial fluorescence, higher = more signal, called active from +8 up or from −8 down
Activity calls are given as the source filed them.
Listing of recorded z-score by entry.

Use these answered entries as a reference point.
{"molecule": "C[C@@H]1CCC2C(=O)N(Cc3ccccc3)C[C@@H](O)CN2[C@H]1c1ccc(Br)cc1 (stereo partly drawn)", "metric name": "z-score", "assay result": "0.303 (inactive)"}
{"molecule": "O=C1CCCC2OC12C(O)CCc1ccccc1 (stereo not drawn)", "metric name": "z-score", "assay result": "0.279 (inactive)"}
{"molecule": "CC(=O)OC[C@H]1O[C@@H](ON=C[C@@H](C)[C@H](OCc2ccccc2)C(C)C)[C@H](OC(C)=O)[C@@H](OC(C)=O)[C@@H]1OC(C)=O", "metric name": "z-score", "assay result": "0.0097 (inactive)"}

Briefly, z-score measured for `CN(C)C(=O)[C@@]1(Cc2ccccc2)N=C(c2ccc(OCCCO)cc2)O[C@H]1c1ccccc1CN=[N+]=[N-]` : -0.775 (inactive)

Briefly, z-score measured for `CC(=O)OC[C@H]1O[C@H](CCON=C(C)CCC(=O)OC[C@H]2O[C@H](C#Cc3ccccc3)C=C[C@@H]2Oc2ccc(C)cc2)C=C[C@@H]1OC(C)=O` : -0.942 (inactive)

Briefly, z-score measured for Cn1cccc1C(O)C1C=CC2C(=O)NC(=O)C2N1Nc1ccccn1 (stereo not drawn) : 1.73 (inactive)

Briefly, z-score measured for `CCOC(=O)CCN1C(=O)[C@H]2[C@H]3[C@H](O)C=CC(=O)[C@@H]3CC[C@H]2C1=O` : 0.53 (inactive)

Briefly, z-score measured for `CCCCc1nc2c(c3c1C[C@H](C)OC3)CN(CCC(C)C)CC2` : -0.836 (inactive)
